Listing of entries alongside the reported pEC50.
molecular target: Cannabinoid receptor 2 (Homo sapiens, UniProt P34972); assay: Inverse agonist activity at human CB2 receptor transfected in HEK293 cells assessed as increase of forskolin-induced cAMP production incubated for 30 mins followed by d2 labeled cAMP addition measured after 60 mins by HTRF assay
Sequence (P34972 whole entry): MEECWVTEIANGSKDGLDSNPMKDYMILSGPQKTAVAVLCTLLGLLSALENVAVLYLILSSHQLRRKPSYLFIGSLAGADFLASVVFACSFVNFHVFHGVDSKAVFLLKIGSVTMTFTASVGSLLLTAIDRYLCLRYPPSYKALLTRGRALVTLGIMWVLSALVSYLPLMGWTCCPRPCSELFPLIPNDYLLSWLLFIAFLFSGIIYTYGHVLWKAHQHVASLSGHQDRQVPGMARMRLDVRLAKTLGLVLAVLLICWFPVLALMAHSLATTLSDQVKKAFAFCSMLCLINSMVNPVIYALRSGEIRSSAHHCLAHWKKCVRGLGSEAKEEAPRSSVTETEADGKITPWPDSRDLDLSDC
// scale note: pEC50 = -log10(conc_M); give the bare number

Which measured pEC50 value corresponds to COc1ccc(/C=C2\CN(C(=O)Cn3ccnc3)Cc3c(C(=O)N[C@H](C)c4ccccc4)nn(-c4ccc(Cl)cc4Cl)c32)cc1 ? 6.43

* * *

assay: Drug uptake in C57BL/6J mouse brain at 20 mg/kg, po measured at 2 hrs; assay type: ADME, organism-based; conditions: in vivo, 2 h
Lab note - cut at 0.1 nmol/g for Drug uptake: True if strictly below, False if not.

- chemical-string: "COc1ccc(/C=C2\\CN(C(=O)Cn3cnnn3)Cc3c(C(=O)N[C@H](C)c4ccccc4)nn(-c4ccc(Cl)cc4Cl)c32)cc1"
  assigned-class: "True"

Just wondering, is Drug uptake of C[C@@H](NC(=O)c1nn(-c2ccc(Cl)cc2Cl)c2c1CN(C(=O)c1nc[nH]n1)C/C2=C\c1ccc(F)cc1)c1ccccc1 below 0.1 nmol/g? False

Record C[C@@H](NC(=O)c1nn(-c2ccc(Cl)cc2)c2c1CN(C(=O)c1nc[nH]n1)C/C2=C\c1ccc(Cl)cc1)c1ccccc1 : is its Drug uptake strictly below 0.1 nmol/g? False

Regarding COc1ccc(/C=C2\CN(C(=O)c3nc[nH]n3)Cc3c(C(=O)N[C@H](C)c4ccccc4)nn(-c4ccc(Cl)cc4Cl)c32)cc1 , kindly confirm whether its Drug uptake is beneath 0.1 nmol/g. True

Given the entry C[C@@H](NC(=O)c1nn(-c2ccc(Cl)cc2)c2c1CN(C(=O)c1nc[nH]n1)C/C2=C\c1ccc(F)cc1)c1ccccc1 , would its reported Drug uptake be below 0.1 nmol/g? True

* * *

target: Cannabinoid receptor 2 (Homo sapiens, UniProt P34972); assay: Inverse agonist activity at human CB2 receptor transfected in HEK293 cells assessed as increase of forskolin-induced cAMP production incubated for 30 mins followed by d2 labeled cAMP addition measured after 60 mins by HTRF assay
assay-endpoint: EC50 (µM)
Kindly answer with a numeric value in µM, unit omitted.

Some solved entries appear below for comparison.
- chemical-string: "COc1ccc(/C=C2\\CN(C(=O)c3cc[nH]n3)Cc3c(C(=O)N[C@H](C)c4ccccc4)nn(-c4ccc(Cl)cc4Cl)c32)cc1"
  assay-endpoint: "EC50"
  uom: "µM"
  meas-value: 4.66
- chemical-string: "C[C@@H](NC(=O)c1nn(-c2ccc(Cl)cc2Cl)c2c1CN(C(=O)[C@@H](O)CO)C/C2=C\\c1ccc(Cl)cc1)c1ccccn1"
  assay-endpoint: "EC50"
  uom: "µM"
  meas-value: 5.55

Let us examine a further case.
Any idea what its EC50 is? The compound is COc1ccc(/C=C2\CN(C(=O)Cn3cnnn3)Cc3c(C(=O)N[C@H](C)c4ccccc4)nn(-c4ccc(Cl)cc4Cl)c32)cc1 1.13

* * *

assay: Plasma concentration in C57BL/6J mouse at 20 mg/kg, po measured at 4 hrs; assay type: ADME, organism-based
assay-endpoint: concentration at 4 h (µM)
Give just the numeric value; µM need not be written.

Reference set (5 entries):
- chemical-string: "C[C@@H](NC(=O)c1nn(-c2ccc(Cl)cc2Cl)c2c1CN(C(=O)Cn1cnnn1)C/C2=C\\c1ccc(F)cc1)c1ccccn1"
  meas-value: 2.28
- chemical-string: "C[C@@H](NC(=O)c1nn(-c2ccc(Cl)cc2Cl)c2c1CN(C(=O)CCC(N)=O)C/C2=C\\c1ccc(F)cc1)c1ccccn1"
  meas-value: 4.25
- chemical-string: "COc1ccc(/C=C2\\CN(C(=O)CC(=O)O)Cc3c(C(=O)N[C@H](C)c4ccccn4)nn(-c4ccc(Cl)cc4Cl)c32)cc1"
  meas-value: 0.09
- chemical-string: "C[C@@H](NC(=O)c1nn(-c2ccc(Cl)cc2Cl)c2c1CN(C(=O)[C@@H](O)CO)C/C2=C\\c1ccc(Cl)cc1)c1ccccn1"
  meas-value: 2.41
- chemical-string: "C[C@@H](NC(=O)c1nn(-c2ccc(Cl)cc2Cl)c2c1CN(C(=O)CNS(C)(=O)=O)C/C2=C\\c1ccc(Cl)cc1)c1ccccn1"
  meas-value: 3.32

GET /values?readout=concentration at 4 h&item= COc1ccc(/C=C2\CN(C(=O)CN)Cc3c(C(=O)N[C@H](C)c4ccccc4)nn(-c4ccc(Cl)cc4Cl)c32)cc1 1.53

Please report the recorded concentration at 4 h for COc1ccc(/C=C2\CN(C(=O)CS(N)(=O)=O)Cc3c(C(=O)N[C@H](C)c4ccccn4)nn(-c4ccc(Cl)cc4Cl)c32)cc1 . 2.09

Endpoint output: concentration at 4 h of C[C@@H](NC(=O)c1nn(-c2ccc(Cl)c(Cl)c2)c2c1CN(C(=O)Cn1cnnn1)C/C2=C\c1ccc(F)cc1)c1ccccn1 . Value? 2.82

Quick check: concentration at 4 h of C[C@@H](NC(=O)c1nn(-c2ccc(Cl)c(Cl)c2)c2c1CN(C(=O)Cn1cncn1)C/C2=C\c1ccc(Cl)cc1)c1ccccn1 ? 4.6

For C[C@@H](NC(=O)c1nn(-c2ccc(Cl)cc2)c2c1CN(C(=O)CNS(C)(=O)=O)C/C2=C\c1ccc(F)cc1)c1ccccn1 , what is its reported concentration at 4 h? 1.72

What does the record list as concentration at 4 h for C[C@@H](NC(=O)c1nn(-c2ccc(Cl)cc2Cl)c2c1CN(C(=O)[C@@H](O)CO)C/C2=C\c1ccc(Cl)cc1)c1ccccc1 ? 2.77

Record request: concentration at 4 h value, item COc1ccc(/C=C2\CN(C(=O)CCS(N)(=O)=O)Cc3c(C(=O)N[C@H](C)c4ccccn4)nn(-c4ccc(Cl)cc4Cl)c32)cc1 1.36
